Measured protein stability index accompanies every entry in the list below.
assay: protein stability index of a GFP-peptide fusion (yeast GPS) (PSI 1-4); higher = more stable; sorted into four equal gates, so the index is relative within each strain; settings: ubr1∆
Give the figure only, with no unit attached.

- QFTLYDRELNEVINQME [SMC3]: 3.08

Now examine the next entry.
Q. Identify measured protein stability index associated with DPETTATQKESLEMVPK [RGR1]
A. 3.11

----------
assay: protein stability index of a GFP-peptide fusion (yeast GPS) (PSI 1-4); higher = more stable; sorted into four equal gates, so the index is relative within each strain; settings: ubr1∆
Note to self: values exactly at 3 are y. So protein stability index at or above 3 is y, below is n.

Example entries and their recorded answers appear below.
- RVFNAKDTTGPKAISNF [YCS4]: n
- MNYLLDNKINEIKLLEI [CSI1]: n

Q. Could you tell me if the measured protein stability index of GIKLALDPNLITLALSS [SRB4] reaches 3 or more?
A. n

Q. Quick check, protein stability index >= 3? DPKFRRNHKHALHGTAK [RPL29]
A. n

Q. Hi team, for SAKGPEIIPLQDYYIIG [MED6] , is the recorded protein stability index at or above 3?
A. y

Q. Decide: is the reported value of protein stability index for EMAEKIDFTLLNRLLRL [PRP8] equal to or greater than 3?
A. n

Q. Could you verify whether the entry GTGRSGQGAFGNMCRGG [RPL4A] shows protein stability index of no less than 3?
A. y

Q. Exam item: decide whether the reported protein stability index for QNPMRDLKIEKLVLNIS [RPL11A] is at least 3.
A. n

Q. Please tell me: is the sequence TVLADEFIAHRLGLIPL [RPB3] at or over 3 in terms of protein stability index?
A. y

Q. Reported protein stability index at or above 3? IQFLTIGAGVPSLEVAS [FAS1]
A. n

Q. Confirm if protein stability index reported for the sequence GHSQFTSHYQNYHPNAS [RPN4] is 3 or above.
A. n

Q. Record YDTQLKVSPEELPLVIT [ARP7] ; criterion: protein stability index no lower than 3. Met?
A. n

Q. Tell me whether protein stability index is at least 3 here: LLENPNCFFDVIVPQIV [DIS3]
A. n

Q. Quick check, protein stability index >= 3? DYQVQGLNWLISLHENK [ISW2]
A. n

Q. Decide: is the reported value of protein stability index for QVEKLGKKMEARGQSIW [RPN9] equal to or greater than 3?
A. n

Q. Entry VKRRRDMLEHINLAMNE [SRB4] : is its protein stability index no less than 3?
A. n

Q. Please tell me: is the sequence LGVKNLGLCCLLDVKLA [YCG1] at or over 3 in terms of protein stability index?
A. n

meta.source: the supplement of paper PMC9732359
